Assignment: determine reported IC50 for the given compounds.
Assayed System: transketolase (TK) in colon carcinoma HCT116 cells (Homo sapiens, UniProt P29401)
Construct: endogenous in cells
Sequence (P29401 whole entry): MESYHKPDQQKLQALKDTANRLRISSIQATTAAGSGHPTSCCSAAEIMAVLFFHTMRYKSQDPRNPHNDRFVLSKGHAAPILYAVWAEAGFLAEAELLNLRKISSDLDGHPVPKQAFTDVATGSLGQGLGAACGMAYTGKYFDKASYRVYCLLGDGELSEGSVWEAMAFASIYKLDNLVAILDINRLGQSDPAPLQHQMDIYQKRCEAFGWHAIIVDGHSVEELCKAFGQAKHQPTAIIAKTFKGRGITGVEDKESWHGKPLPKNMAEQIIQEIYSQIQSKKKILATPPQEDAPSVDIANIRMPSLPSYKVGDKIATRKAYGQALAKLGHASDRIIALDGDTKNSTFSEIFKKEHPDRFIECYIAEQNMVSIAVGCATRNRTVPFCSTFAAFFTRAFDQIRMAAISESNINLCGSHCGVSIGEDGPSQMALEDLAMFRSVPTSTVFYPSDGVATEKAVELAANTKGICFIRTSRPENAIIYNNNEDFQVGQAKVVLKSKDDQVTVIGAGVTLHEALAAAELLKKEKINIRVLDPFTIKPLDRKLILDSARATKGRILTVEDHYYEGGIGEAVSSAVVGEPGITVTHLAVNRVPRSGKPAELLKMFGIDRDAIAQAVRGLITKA
Assay Comment: Cellular transketolase inhibition assay in HCT116
Condition Summary: colon carcinoma HCT116, thiamine-free DMEM, 48 h after compound treatment, TK activity in lysate
Answers are plain numbers, in nM.

# per-item lookup of IC50; items listed below
1. Cc1cc(C)c(C[n+]2csc(CCO)c2C)c(N)n1
2. Cc1ccc(C[n+]2csc([C@H](O)CO)c2C)c(N)n1
3. Cc1ncc(C[n+]2csc(CCO)c2C)c(=O)[nH]1

// result
1. 131
2. 62
3. 76
